target-system: ErbB4 on neonatal rat cardiomyocytes (rat) (UniProt Q62956)
Sequence (Q62956 26-1308): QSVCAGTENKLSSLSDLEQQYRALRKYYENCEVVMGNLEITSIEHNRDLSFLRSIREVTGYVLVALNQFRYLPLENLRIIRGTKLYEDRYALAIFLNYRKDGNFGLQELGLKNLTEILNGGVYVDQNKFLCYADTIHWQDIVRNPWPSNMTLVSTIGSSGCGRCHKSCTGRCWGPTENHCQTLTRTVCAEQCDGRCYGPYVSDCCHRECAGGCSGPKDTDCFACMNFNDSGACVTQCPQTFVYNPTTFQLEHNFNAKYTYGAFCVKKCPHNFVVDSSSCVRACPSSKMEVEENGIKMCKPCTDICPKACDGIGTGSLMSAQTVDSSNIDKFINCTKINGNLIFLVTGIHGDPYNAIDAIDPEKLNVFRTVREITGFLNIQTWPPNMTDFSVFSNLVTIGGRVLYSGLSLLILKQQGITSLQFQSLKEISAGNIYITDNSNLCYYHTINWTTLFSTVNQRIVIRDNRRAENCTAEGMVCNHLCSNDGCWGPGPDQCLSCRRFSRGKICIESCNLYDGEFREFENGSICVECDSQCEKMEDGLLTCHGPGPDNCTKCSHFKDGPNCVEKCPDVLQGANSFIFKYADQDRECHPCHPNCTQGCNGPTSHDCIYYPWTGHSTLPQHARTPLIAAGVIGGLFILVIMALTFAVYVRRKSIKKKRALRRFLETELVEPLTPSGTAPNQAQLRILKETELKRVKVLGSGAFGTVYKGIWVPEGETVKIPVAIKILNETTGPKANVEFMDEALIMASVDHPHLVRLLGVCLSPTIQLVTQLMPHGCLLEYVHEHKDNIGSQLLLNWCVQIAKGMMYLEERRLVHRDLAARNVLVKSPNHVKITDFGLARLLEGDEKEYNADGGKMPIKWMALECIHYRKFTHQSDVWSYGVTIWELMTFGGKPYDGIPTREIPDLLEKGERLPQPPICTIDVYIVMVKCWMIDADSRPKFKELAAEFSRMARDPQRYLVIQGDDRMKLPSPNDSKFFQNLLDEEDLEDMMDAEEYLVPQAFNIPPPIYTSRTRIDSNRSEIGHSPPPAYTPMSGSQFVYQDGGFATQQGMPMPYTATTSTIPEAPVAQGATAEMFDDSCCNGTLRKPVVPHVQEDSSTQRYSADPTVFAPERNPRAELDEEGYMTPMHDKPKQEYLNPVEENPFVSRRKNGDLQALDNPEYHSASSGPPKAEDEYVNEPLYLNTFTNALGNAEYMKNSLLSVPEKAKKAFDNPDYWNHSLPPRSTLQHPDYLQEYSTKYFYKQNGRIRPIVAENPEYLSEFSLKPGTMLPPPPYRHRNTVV
assay-name: cell-based or functional assay
Cut-off 1 nM on Cardiomyocyte (CM) (ErbB4) Avg EC50, inclusive. At or above means t; below means f.

As a guide, the following entries are already answered.
{"binder": "huNRG1(S177-Q237)(NRGE1A)::GG::huFcSEFL2 (Pb) (Fc fusion) SHLVKCAENDKSFCVNGGECFMIEGPSNPSRYLCKCPNEFTGDRCQEDFMASFYKAEELYQGGDKTHTCPPCPAPELLGGPSVFLFPPKPKDTLMISRTPEVTCVVVDVSHEDPEVKFNWYVDGVEVHNAKTKPCEEQYGSTYRCVSVLTVLHQDWLNGKEYKCKVSNKALPAPIEKTISKAKGQPREPQVYTLPPSREEMTKNQVSLTCLVKGFYPSDIAVEWESNGQPENNYKTTPPVLDSDGSFFLYSKLTVDKSRWQQGNVFSCSVMHEALHNHYTQKSLSLSPGK", "label-class": "t"}
{"binder": "huNRG1(S177-Q237)(2F2)::GG::huFcSEFL2 (Pb) (Fc fusion) SHLVKCAESEKTFCVNGGECYMIEHPSNPSRFLCKCPNEFTGDRCQNVFMASFYKAEELYQGGDKTHTCPPCPAPELLGGPSVFLFPPKPKDTLMISRTPEVTCVVVDVSHEDPEVKFNWYVDGVEVHNAKTKPCEEQYGSTYRCVSVLTVLHQDWLNGKEYKCKVSNKALPAPIEKTISKAKGQPREPQVYTLPPSREEMTKNQVSLTCLVKGFYPSDIAVEWESNGQPENNYKTTPPVLDSDGSFFLYSKLTVDKSRWQQGNVFSCSVMHEALHNHYTQKSLSLSPGK", "label-class": "f"}
{"binder": "huNRG1(S177-Q237)(NRGE1N)::GG::huFcSEFL2 (Pb) (Fc fusion) SHLVKCGENDKSFCVNGGECYMVEGSSIPSRYLCKCPNEFTGDRCQDFFMASFYKAEELYQGGDKTHTCPPCPAPELLGGPSVFLFPPKPKDTLMISRTPEVTCVVVDVSHEDPEVKFNWYVDGVEVHNAKTKPCEEQYGSTYRCVSVLTVLHQDWLNGKEYKCKVSNKALPAPIEKTISKAKGQPREPQVYTLPPSREEMTKNQVSLTCLVKGFYPSDIAVEWESNGQPENNYKTTPPVLDSDGSFFLYSKLTVDKSRWQQGNVFSCSVMHEALHNHYTQKSLSLSPGK", "label-class": "t"}
{"binder": "huNRG1(S177-Q237)(3H8)::GG::huFcSEFL2 (Pb) (Fc fusion) SHLVKCGEKHKSFCVNGGECYMVEGSSIPSRYLCKCPNEFTGDRCQEDFMASFYKAEELYQGGDKTHTCPPCPAPELLGGPSVFLFPPKPKDTLMISRTPEVTCVVVDVSHEDPEVKFNWYVDGVEVHNAKTKPCEEQYGSTYRCVSVLTVLHQDWLNGKEYKCKVSNKALPAPIEKTISKAKGQPREPQVYTLPPSREEMTKNQVSLTCLVKGFYPSDIAVEWESNGQPENNYKTTPPVLDSDGSFFLYSKLTVDKSRWQQGNVFSCSVMHEALHNHYTQKSLSLSPGK", "label-class": "f"}

Incoming: Hi, just wondering whether huNRG1(S177-Q237)(3H5)::GG::huFcSEFL2 (Pb) (Fc fusion) SHLVKCGERHKSFCVNGGECYVVERPSIPSRFLCKCPNEFTGDRCQKDFLASFYKAEELYQGGDKTHTCPPCPAPELLGGPSVFLFPPKPKDTLMISRTPEVTCVVVDVSHEDPEVKFNWYVDGVEVHNAKTKPCEEQYGSTYRCVSVLTVLHQDWLNGKEYKCKVSNKALPAPIEKTISKAKGQPREPQVYTLPPSREEMTKNQVSLTCLVKGFYPSDIAVEWESNGQPENNYKTTPPVLDSDGSFFLYSKLTVDKSRWQQGNVFSCSVMHEALHNHYTQKSLSLSPGK shows Cardiomyocyte (CM) (ErbB4) Avg EC50 of 1 nM or higher.
Outgoing: t
